- assay.info: PK of voruciclib, 2 weeks of daily dosing followed by 1 week without dosing in a 21-day cycle (Table 3)
- Format: in vivo, human
- measurement.parameters: human, plasma, oral, 75 mg, Day 13, 2 weeks daily dosing/1 week off, mean; read-out: AUC0-24
- Text: Voruciclib half life is designated as t½ in the tables (expressed in hours). Voruciclib volume of distribution is designated as Vz/F (expressed in liters).

{"columns": ["record.smiles", "AUC(0-t)"],
 "data": [
  ["CN1CC[C@@H](c2c(O)cc(O)c3c(=O)cc(-c4ccc(C(F)(F)F)cc4Cl)oc23)[C@@H]1CO", "5290 ng·h/mL"]
]}

* * *

- System: NCI-H1792
- assay.info: 72-hour CellTiter-Glo 2.0 growth inhibition screen (single agent, 9x9 combination dose matrix)
- Assay type: cell-based
- measurement.parameters: NCl-H1792, Lung; Additional Single Agent Responses (inhibition, % I), 72 h
- Procedure: Growth inhibition was determined using a 72-hour CellTiter-Glo®2.0 proliferation assay. Combination format was a 9×9 dose matrix. […] Results have been supplied as both Chalice Analyzer files (.mcc) and raw luminescence data. Cell lines that have been preserved in liquid nitrogen are thawed and expanded in growth media (see Appendix I). […] Assay plates are incubated with compound for 3 days and are then analyzed using CellTiter-Glo 2.0. […]
pEC50: −log10 of the molar value.

{"columns": ["compound", "target", "pEC50"],
 "data": [
  ["CN1CC[C@@H](c2c(O)cc(O)c3c(=O)cc(-c4ccc(C(F)(F)F)cc4Cl)oc23)[C@@H]1CO [MEI-522(Voruciclib)]", "NCI-H1792", 5.87]
]}

* * *

- assay.info: PK of voruciclib, daily dosing continuously (Table 4)
- Assay type: in vivo
- measurement.parameters: human, plasma, oral, 500 mg, Day 15, daily dosing continuously, mean; read-out: Vz/F
reported.metric: Vd/F (L)

{"columns": ["record.smiles", "recorded.value"],
 "data": [
  ["CN1CC[C@@H](c2c(O)cc(O)c3c(=O)cc(-c4ccc(C(F)(F)F)cc4Cl)oc23)[C@@H]1CO", 51]
]}

* * *

Entries and their pEC50 values follow.
- Test system: Panc 04.03
- assay.info: 72-hour CellTiter-Glo 2.0 growth inhibition screen (single agent, 9x9 combination dose matrix)
- Assay type: cell-based
- measurement.parameters: Homo sapiens, Panc 04.03, 72 h, Panc 04.03, Pancreas; Additional Single Agent Responses (inhibition, % I), 72 h
pEC50: −log10 of the molar value.
reported.metric: pEC50

{"columns": ["record.smiles", "reported.metric", "recorded.value"],
 "data": [
  ["CN1CCN(c2ccc(OC(F)(F)F)c(Nc3ncc4c(n3)-c3c(c(C(N)=O)nn3CCO)CC4)c2)CC1", "pEC50", 7.73],
  ["CC[C@@H]1C(=O)N(C)c2cnc(Nc3ccc(C(=O)N[C@H]4CC[C@H](N5CCN(CC6CC6)CC5)CC4)cc3OC)nc2N1C(C)C", "pEC50", 8.38]
]}

* * *

- assay.info: PK of voruciclib, daily dosing continuously (Table 4)
- Format: in vivo
- measurement.parameters: human, plasma, oral, 350 mg, Day 1, daily dosing continuously, mean

{"columns": ["record.smiles", "Cmax / ng/mL"],
 "data": [
  ["CN1CC[C@@H](c2c(O)cc(O)c3c(=O)cc(-c4ccc(C(F)(F)F)cc4Cl)oc23)[C@@H]1CO", 623]
]}

* * *

- assay.info: PK of voruciclib, 2 weeks of daily dosing followed by 1 week without dosing in a 21-day cycle (Table 3)
- Assay type: in vivo, human
- measurement.parameters: human, plasma, oral, 150 mg, Day 1, 2 weeks daily dosing/1 week off, mean; read-out: AUC0-24
reported.metric: AUC(0-t)

{"columns": ["record.smiles", "reported.metric", "recorded.value"],
 "data": [
  ["CN1CC[C@@H](c2c(O)cc(O)c3c(=O)cc(-c4ccc(C(F)(F)F)cc4Cl)oc23)[C@@H]1CO", "AUC(0-t)", "6980 ng·h/mL"]
]}

* * *

- assay.info: PK of voruciclib, daily dosing continuously (Table 4)
- Type: in vivo
- measurement.parameters: human, plasma, oral, 350 mg, Day 1, daily dosing continuously, mean; read-out: t½ (converted)

{"columns": ["record.smiles", "units.symbol", "half-life"],
 "data": [
  ["CN1CC[C@@H](c2c(O)cc(O)c3c(=O)cc(-c4ccc(C(F)(F)F)cc4Cl)oc23)[C@@H]1CO", "days", 5.39]
]}

* * *

- assay.info: clinical
- measurement.parameters: human, in vivo, Half life
reported.metric: half-life

{"columns": ["record.smiles", "recorded.value"],
 "data": [
  ["CN1CC[C@@H](c2c(O)cc(O)c3c(=O)cc(-c4ccc(C(F)(F)F)cc4Cl)oc23)[C@@H]1CO", "24 to 28 h"]
]}

* * *

- assay.info: PK of voruciclib, 2 weeks of daily dosing followed by 1 week without dosing in a 21-day cycle (Table 3)
- Format: in vivo, human
- measurement.parameters: human, plasma, oral, 150 mg, Day 13, 2 weeks daily dosing/1 week off, mean; read-out: AUC0-t
reported.metric: AUC(0-t) (ng·h/mL)

{"columns": ["record.smiles", "reported.metric", "recorded.value"],
 "data": [
  ["CN1CC[C@@H](c2c(O)cc(O)c3c(=O)cc(-c4ccc(C(F)(F)F)cc4Cl)oc23)[C@@H]1CO", "AUC(0-t)", 13000]
]}

* * *

- assay.info: PK of voruciclib, daily dosing continuously (Table 4)
- Assay type: in vivo
- measurement.parameters: human, plasma, oral, 350 mg, Day 15, daily dosing continuously, mean; read-out: t½ (converted)
- Text: Voruciclib half life is designated as t½ in the tables (expressed in hours). Voruciclib volume of distribution is designated as Vz/F (expressed in liters).

{"columns": ["record.smiles", "half-life, h"],
 "data": [
  ["CN1CC[C@@H](c2c(O)cc(O)c3c(=O)cc(-c4ccc(C(F)(F)F)cc4Cl)oc23)[C@@H]1CO", 72.5]
]}

* * *

- assay.info: PK of voruciclib, 2 weeks of daily dosing followed by 1 week without dosing in a 21-day cycle (Table 3)
- Format: in vivo, human
- measurement.parameters: human, plasma, oral, 150 mg, Day 1, 2 weeks daily dosing/1 week off, mean
- Text: Voruciclib half life is designated as t½ in the tables (expressed in hours). Voruciclib volume of distribution is designated as Vz/F (expressed in liters).

{"columns": ["record.smiles", "Cmax (ng/mL)"],
 "data": [
  ["CN1CC[C@@H](c2c(O)cc(O)c3c(=O)cc(-c4ccc(C(F)(F)F)cc4Cl)oc23)[C@@H]1CO", 456]
]}

* * *

Examples of compounds with documented Response Area follow.
- System: SW48
- assay.info: 72-hour CellTiter-Glo 2.0 growth inhibition screen (single agent, 9x9 combination dose matrix)
- Format: cell-based
- measurement.parameters: SW48, Colorectal; Additional Single Agent Responses (inhibition, % I), 72 h
- Method: Growth inhibition was determined using a 72-hour CellTiter-Glo®2.0 proliferation assay. Combination format was a 9×9 dose matrix. […] Results have been supplied as both Chalice Analyzer files (.mcc) and raw luminescence data. Cell lines that have been preserved in liquid nitrogen are thawed and expanded in growth media (see Appendix I). […] Assay plates are incubated with compound for 3 days and are then analyzed using CellTiter-Glo 2.0. […]
reported.metric: Response Area

{"columns": ["record.smiles", "recorded.value"],
 "data": [
  ["CC[C@@H]1C(=O)N(C)c2cnc(Nc3ccc(C(=O)N[C@H]4CC[C@H](N5CCN(CC6CC6)CC5)CC4)cc3OC)nc2N1C(C)C", 4.47],
  ["C=CC(=O)N1CCN(c2nc(=O)n(-c3c(C)ccnc3C(C)C)c3nc(-c4c(O)cccc4F)c(F)cc23)[C@@H](C)C1", 0.48],
  ["CN1CCN(c2ccc(OC(F)(F)F)c(Nc3ncc4c(n3)-c3c(c(C(N)=O)nn3CCO)CC4)c2)CC1", 4.36],
  ["CN1CC[C@@H](c2c(O)cc(O)c3c(=O)cc(-c4ccc(C(F)(F)F)cc4Cl)oc23)[C@@H]1CO", 2.91]
]}

* * *

- Tested on: SW48
- assay.info: 72-hour CellTiter-Glo 2.0 growth inhibition screen (single agent, 9x9 combination dose matrix)
- Format: cell-based
- measurement.parameters: Homo sapiens, SW48, 72 h, SW48, Colorectal; growth inhibition (GI) curve, single agent, 72 h
Measured EC50, listed per entry for reference.

{"columns": ["record.smiles", "target", "EC50, µM"],
 "data": [
  ["C=CC(=O)N1CCN(c2nc(=O)n(-c3c(C)ccnc3C(C)C)c3nc(-c4c(O)cccc4F)c(F)cc23)[C@@H](C)C1", "SW48", 2.72],
  ["CN1CCN(c2ccc(OC(F)(F)F)c(Nc3ncc4c(n3)-c3c(c(C(N)=O)nn3CCO)CC4)c2)CC1", "SW48", 0.0154],
  ["CC[C@@H]1C(=O)N(C)c2cnc(Nc3ccc(C(=O)N[C@H]4CC[C@H](N5CCN(CC6CC6)CC5)CC4)cc3OC)nc2N1C(C)C", "SW48", 0.0049]
]}

The reported numbers originate from patent US20240016781A1.
